experiment: A qHTS for Small Molecule Inhibitors of Shiga Toxin (Confirmatory); conditions: Cell-based Shiga toxin protection reporter assay; series mostly up to 38.3 µM; also: nearly all actives have a fitted effect of over 75% in size
Records with an inconclusive call do not appear. Activity calls are given as the source filed them. Calls follow the shape of the full dose curve.
Bench note: report the call from active, inactive

Take a look at these entries with their results.
{"Compound": "Cc1cccc(C(=O)NC(NCCc2ccccc2)C(Cl)(Cl)Cl)c1 (stereo unspecified)", "Category Label": "inactive"}
{"Compound": "CCC(=O)N1CCN(c2ccccc2NC(=O)c2ccc([N+](=O)[O-])o2)CC1", "Category Label": "active"}
{"Compound": "COCCCNC(=O)NC(=O)c1ccccc1", "Category Label": "inactive"}
{"Compound": "COc1ccc(C(=O)CSc2nnc(C(CO)NC(=O)c3ccc(OC)cc3)n2C)cc1 (stereo unspecified)", "Category Label": "inactive"}
{"Compound": "COc1ccc(C(=O)Nc2ccccc2C(=O)NCc2ccco2)cc1", "Category Label": "active"}

Kindly review the next compound as well.
Exercise: Tell me the assay call for "CCOC(=O)Cc1csc(NC(=O)CSc2ncnc3c2cnn3-c2ccc(OC)cc2)n1" please.
Key: active

###

experiment: A qHTS for Small Molecule Inhibitors of Shiga Toxin (Confirmatory); settings: Cell-based Shiga toxin protection reporter assay; series mostly up to 38.3 µM; also: nearly all actives have a fitted effect of over 75% in size
Results filed as inconclusive are left out. Activity calls are given as the source filed them. Calls follow the shape of the full dose curve.
// allowed return values: active, inactive

Study these solved cases before continuing.
{"Molecule": "COc1cccc(OC)c1OCCCOc1ccc(C)cc1Br", "Category Label": "inactive"}
{"Molecule": "NS(=O)(=O)c1ccc(CCNC(=O)c2ccc(NC3=NC4CS(=O)(=O)CC4S3)cc2)cc1 (stereo unspecified)", "Category Label": "inactive"}
{"Molecule": "N=c1c(S(=O)(=O)c2ccc(Cl)cc2)cc2c(=O)n3ccccc3nc2n1C1CCCCC1", "Category Label": "inactive"}
{"Molecule": "O=C(Sc1cccc2cccnc12)c1ccccc1Br", "Category Label": "active"}
{"Molecule": "CC(OC(=O)c1ccc2c(=O)n3c(nc2c1)CCC3)C(N)=O (stereo unspecified)", "Category Label": "inactive"}
{"Molecule": "CC(=O)c1cccc(N2C(=O)C3C4CCC(C4=C(C)C)C3C2=O)c1 (stereo unspecified)", "Category Label": "inactive"}
{"Molecule": "COc1ccccc1NC(=O)Nc1cc(F)ccc1F", "Category Label": "active"}
{"Molecule": "COc1ccccc1-n1cnnc1SCC(=O)Nc1ccccc1", "Category Label": "active"}
{"Molecule": "CC(C)(C)C1CCC(C(=O)OCC(=O)c2ccc[nH]2)CC1 (stereo unspecified)", "Category Label": "active"}
{"Molecule": "COc1cc(/C=C2/C(=O)c3cccc([N+](=O)[O-])c3C2=O)c(Br)cc1O", "Category Label": "active"}

Exercise: Record request — test call for "O=C(/C=C/Nc1ccc(F)cc1F)c1ccco1"
Key: active

Exercise: # lookup: test call for "Cc1ccc(N/C(C(Cl)=C(Cl)Cl)=C(/Cl)[N+](=O)[O-])c(C)c1"
Key: inactive

Exercise: Write down the call the test reported for this molecule. Item: "O=C(O)Cc1ccc2oc(-c3ccccn3)nc2c1"
Key: active

Exercise: Kindly provide the recorded test outcome for the following molecule: "O=C(/C=C/C#Cc1cccc(NS(=O)(=O)c2ccccc2)c1)NO"
Key: active

Exercise: Please share the test call associated with "O=C1C(Cl)=C(Nc2ccccc2)C(=O)c2ccccc21" .
Key: active

Exercise: Hey, what did the test say about CCCCC1(C)Nc2ccccc2-c2nc3ccccc3n21 (stereo unspecified) ?
Key: active

Exercise: Which outcome was entered for the molecule Cc1nnc(NC(=O)C2COc3ccccc3O2)s1 (stereo unspecified) in this test?
Key: active

Exercise: Give the logged outcome of this assay for the following molecule: "Cc1ccc2c(N)[nH]nc2n1"
Key: inactive

Exercise: Please state the recorded outcome for this molecule: "CCOC(=O)N1CCN(C(=O)CCC(=O)c2ccc(OCC)cc2)CC1"
Key: inactive

Exercise: Returns: the outcome recorded for "CC(=O)N/C(=C\c1ccccc1)C(=O)Nc1ccccc1C" in this assay.
Key: active

Exercise: Each molecule tested received a call. Report the one for "CCCNC(=O)c1ccc2snnc2c1" .
Key: inactive

Exercise: Answer briefly: the call reported for "COc1cc(O)c2c(c1)oc(=O)c1c3cc(O)c(O)cc3oc21" in this assay.
Key: active

Exercise: Hi, do you know how "CC(=O)Nc1cccc(NC(=O)CSc2nc3ccccc3o2)c1" came out in this test?
Key: inactive

###

experiment: A qHTS for Small Molecule Inhibitors of Shiga Toxin (Confirmatory); details: Cell-based Shiga toxin protection reporter assay; series mostly up to 38.3 µM; also: nearly all actives have a fitted effect of over 75% in size
Records with an inconclusive call do not appear. Activity calls are given as the source filed them. The call rests on the fitted dose curve.
Write down the outcome that applies. Available outcomes: active, inactive

{"Compound": "COc1cccc(/C=C/C(=O)c2cccc([N+](=O)[O-])c2)c1OC", "Category Label": "inactive"}
{"Compound": "Cc1ccc(-c2csc(NC(=O)c3ccc(C)o3)n2)cc1", "Category Label": "active"}
{"Compound": "CCOC(=O)c1c(C)[nH]c(C2=NNC(=NC3CC3)SC2)c1C", "Category Label": "active"}
{"Compound": "COc1ccc(-c2cnc[nH]2)cc1", "Category Label": "inactive"}
{"Compound": "COc1ccc(CNC(=O)C(OC(=O)c2ccco2)c2ccccc2F)cc1 (stereo unspecified)", "Category Label": "inactive"}
{"Compound": "COc1ccc2[nH]c(-c3ccccc3)cc(=O)c2c1", "Category Label": "active"}
{"Compound": "Cc1sc(NC(=O)COc2cccc(-n3cnnn3)c2)c(C#N)c1C", "Category Label": "inactive"}
{"Compound": "COC(=O)c1ccc(C)c(NC(=O)CCSc2ccc(Cl)cc2)c1", "Category Label": "inactive"}

Exercise: Please let me know the test result on file for "COc1ccccc1N(CCC#N)C(=O)CSc1nc(-c2ccccc2)cn1N" .
Key: inactive

Exercise: Fill in: this test's call for "CCCn1c(C)cc(/C=C(\C#N)C(=O)OCC(=O)Nc2ccc(OC)c(Cl)c2)c1C" is ___
Key: active

Exercise: Please let me know the test result on file for "CCCc1cc(=O)oc2cc(C)cc(OCC(=O)NCc3ccccn3)c12" .
Key: inactive

###

assay: A qHTS for Small Molecule Inhibitors of Shiga Toxin (Confirmatory); settings: Cell-based Shiga toxin protection reporter assay; series mostly up to 38.3 µM; also: nearly all actives have a fitted effect of over 75% in size
Records with an inconclusive call do not appear. Activity calls are given as the source filed them. Calls come from the whole dose curve.
Reply using exactly one outcome from active, inactive

{"Molecule": "Cc1cccc(C(=O)Nc2scc(CC(C)C)c2C(=O)O)c1", "Category Label": "inactive"}
{"Molecule": "CNC(=O)CSc1nnc(-c2cc(C)cc(C)c2)o1", "Category Label": "inactive"}
{"Molecule": "c1cc2c(cc1Cn1cnnn1)OCO2", "Category Label": "inactive"}

Exercise: Lab log entry: "O=C(Nc1ccccc1)c1ccccc1O" — outcome as called in the assay?
Key: active

Exercise: For this molecule, state the assay outcome: "Cc1cc(C)c2nc(-c3ccccn3)cc(C(=O)NCc3ccco3)c2c1"
Key: active

Exercise: Recorded test call requested for CCC(C)C1C(C#N)=C(N)OC2=C1C(=O)CC(C)(C)C2 (stereo not given)
Key: inactive

Exercise: Kindly provide the recorded test outcome for the following molecule: "CCOC(=O)N1CCN(S(=O)(=O)c2ccc(C(=O)NNc3nc4c(C)cc(C)cc4s3)cc2)CC1"
Key: active

Exercise: Please share the test call associated with "Cc1cc(C)c2c(n1)SCC(=O)N2CC(=O)Nc1ccc(C)c(C)c1" .
Key: active

Exercise: Could you please tell me the result logged for CCOC(=O)C1=C(C)NC(=O)NC1c1ccc(OCC(=O)Nc2ccccc2)c(OC)c1 (stereo not given) in this assay?
Key: inactive

Exercise: Dear all, I need the recorded test outcome for "O=C(NCCC1=CCCCC1)C1CCN(S(=O)(=O)c2cccc3cccnc23)CC1" , thank you.
Key: inactive

Exercise: Give the logged outcome of this assay for the following molecule: "O=C(CCS(=O)(=O)c1cccs1)Nc1ccc(C(=O)NCc2cccs2)cc1"
Key: inactive

###

assay: A qHTS for Small Molecule Inhibitors of Shiga Toxin (Confirmatory); details: Cell-based Shiga toxin protection reporter assay; series mostly up to 38.3 µM; also: nearly all actives have a fitted effect of over 75% in size
Results filed as inconclusive are left out. The source made the active and inactive calls. Calls follow the shape of the full dose curve.
Hello, when you answer, please use one of the following outcomes: active, inactive

Would you please look over these solved cases?
{"Molecule": "COc1ccccc1CNC(=O)c1csc2c1CCCC2", "Category Label": "active"}
{"Molecule": "Cc1ccc2c(c1)N(CC(=O)N1CCCC1)C(=O)CO2", "Category Label": "inactive"}

Exercise: How did this test come out for "CCCc1nc2ccccc2c(=O)n1NC(=O)c1c(O)c2ccccc2[nH]c1=O" ?
Key: active

Exercise: // return assay outcome for "COc1ccccc1C(=O)Nc1nnc(SCC(=O)Nc2ccc3c(c2)oc2ccccc23)s1"
Key: active

Exercise: What classification did "Nc1nc(-c2nn(Cc3ccccc3F)c3ncccc23)ncc1C1CC1" end up with in this test?
Key: inactive

Exercise: What call does the record list for "O=C1NC(=Nc2ccc(O)cc2)S/C1=C\C=C\c1ccco1" ?
Key: active

Exercise: Please let me know the test result on file for "CCN(CCn1cccn1)Cc1nc(-c2ccccc2)no1" .
Key: inactive

Exercise: How was "COc1ccc(-c2cc(-c3ccccc3O)[nH]n2)cc1OC" classified in this test?
Key: active
